target-entity: cIAP-1 BIR-3 (Homo sapiens, UniProt Q13490)
Construct: "cIAP-1 BIR-3"
Sequence (Q13490 266-343 limits assumed): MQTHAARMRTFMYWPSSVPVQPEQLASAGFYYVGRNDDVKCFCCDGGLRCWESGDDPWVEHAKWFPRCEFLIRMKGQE
measurement-notes: Fluorescence polarization binding to cIAP-1 BIR-3 (competition with AbuRPF-K(5-Fam)-NH2)
experimental-conditions: cells marked (cIAP-1): cIAP-1 BIR-3; reported as range class
measured-metric: Kd

Incoming: Reported Kd for CN[C@@H](C)C(=O)N[C@H](C(=O)N1CC[C@@H](O)[C@H]1Cc1c[nH]c2ccccc12)C(C)C : what is it?
Outgoing: < 100 nM

Incoming: Name the reported Kd value associated with the compound CN[C@@H](C)C(=O)N[C@H](C(=O)N1C[C@@H](O)C[C@H]1C[C@H]1CN(C(C)=O)c2ccccc21)[C@@H](C)OC
Outgoing: > 100 nM

Incoming: For the compound shown here, CN[C@@H](C)C(=O)N[C@H](C(=O)N1CCC[C@H]1Cc1cn(C)c2ncccc12)C(C)(C)C , give the reported Kd.
Outgoing: < 100 nM

Incoming: Query: Kd; subject: CCN[C@@H](C)C(=O)N[C@@H](COC)C(=O)N1CC[C@@H](O)[C@H]1Cc1c(-c2ccc(F)cc2)[nH]c2ccccc12
Outgoing: > 100 nM

Incoming: // query Kd value for entry CN[C@@H](C)C(=O)N[C@H](C(=O)N1C[C@@H](O)C[C@H]1C(=O)c1c[nH]c2cc(F)ccc12)C(C)C
Outgoing: < 100 nM

Incoming: Returns the measured Kd for the input compound. Input: CN[C@@H](C)C(=O)N[C@H](C(=O)N1CC[C@H](O)[C@H]1Cc1c[nH]c2ncccc12)[C@@H](C)OC
Outgoing: < 100 nM

Incoming: May I ask what Kd has been recorded for CC[C@H](NC)C(=O)N[C@H](C(=O)N1CC[C@@H](O)[C@H]1Cc1c[nH]c2ccccc12)C(C)(C)C ?
Outgoing: < 100 nM

Incoming: Query: Kd; subject: CCN[C@@H](C)C(=O)N[C@H](C(=O)N1CC[C@@H](O)[C@H]1Cc1c[nH]c2ccccc12)C(C)(C)C
Outgoing: < 100 nM

Incoming: So what's the measured Kd for this one? CN[C@@H](C)C(=O)N[C@H](C(=O)N1CC[C@H](O)[C@H]1Cc1c[nH]c2ncccc12)C(C)C
Outgoing: < 100 nM

----------
Below, each entry is listed alongside its reported Kd.
target-entity: cIAP-1 BIR-3 (Homo sapiens, UniProt Q13490)
Construct: "cIAP-1 BIR-3"
measurement-notes: Fluorescence polarization binding to cIAP-1 BIR-3 (competition with AbuRPF-K(5-Fam)-NH2)
experimental-conditions: cells marked (cIAP-1): cIAP-1 BIR-3; reported as range class

Some molecules with recorded Kd:
chemical-string | Kd
CCc1ccc2c(c1)[C@@H](C[C@@H]1C[C@H](O)CN1C(=O)[C@@H](NC(=O)[C@H](C)NC)C1CCCCC1)CN2C(C)=O | > 100 nM
CCN[C@@H](C)C(=O)N[C@H](C(=O)N1CCC[C@H]1Cc1cn(C)c2ncccc12)C(C)(C)C | < 100 nM
CC[C@H](NC)C(=O)N[C@H](C(=O)N1CCC[C@H]1Cc1cn(C)c2ncccc12)C(C)(C)C | > 100 nM
CN[C@@H](C)C(=O)N[C@H](C(=O)N1CC[C@@H](O)[C@H]1Cc1c[nH]c2ccccc12)C(C)(C)C | < 100 nM
CC[C@H](NC)C(=O)N[C@H](C(=O)N1CC[C@@H](O)[C@H]1Cc1c[nH]c2ccccc12)C1CCCCC1 | < 100 nM

Incoming: Need Kd, item CC[C@H](NC)C(=O)N[C@H](C(=O)N1CC[C@@H](O)[C@H]1Cc1c(-c2ccc(F)cc2)[nH]c2ccccc12)[C@@H](C)O
Outgoing: < 100 nM

Incoming: I'd like to know its Kd. The molecule in question is CN[C@@H](C)C(=O)N[C@H](C(=O)N1CC[C@@H](O)[C@H]1Cc1c(-c2ccc(F)cc2)[nH]c2ccccc12)[C@@H](C)O
Outgoing: < 100 nM

----------
target-entity: XIAP BIR-3 (Homo sapiens, UniProt P98170)
Construct: 40 nM of the BIR3 for 15 min at RT
Sequence (P98170 241-356 limits assumed): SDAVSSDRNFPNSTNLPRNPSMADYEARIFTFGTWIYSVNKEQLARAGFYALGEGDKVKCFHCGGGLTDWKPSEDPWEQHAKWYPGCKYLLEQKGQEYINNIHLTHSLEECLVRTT
measurement-notes: Fluorescence polarization binding to XIAP BIR-3 (competition with AbuRPF-K(5-Fam)-NH2)
experimental-conditions: XIAP BIR-3 (default where cell does not indicate otherwise); reported as range class
measured-metric: Kd

Below: 7 compounds and their reported Kd.
compound | result
CN[C@@H](CO)C(=O)N[C@H](C(=O)N1CC[C@H](C)[C@H]1Cc1c[nH]c2cc(F)ccc12)[C@@H](C)OC [LL] | > 10000 nM
CN[C@@H](CO)C(=O)N[C@H](C(=O)N1CCC[C@H]1Cc1c[nH]c2ncccc12)C(C)(C)C [O] | < 100 nM
CCN[C@@H](CC)C(=O)N[C@H](C(=O)N1CCC[C@H]1Cc1c[nH]c2ncccc12)[C@@H](C)OC [G] | < 100 nM
CC[C@H](NC)C(=O)N[C@H](C(=O)N1CCC[C@H]1Cc1cn(C)c2ncccc12)[C@@H](C)OC [T] | < 100 nM
CN[C@@H](C)C(=O)N[C@H](C(=O)N1CC[C@@H](O)[C@H]1Cc1c[nH]c2ccccc12)[C@@H](C)OC [II′] | < 100 nM
CCNCC(=O)N[C@H](C(=O)N1CCC[C@H]1Cc1c[nH]c2ncccc12)C(C)(C)C [N] | 1000 to 10000 nM
CN[C@@H](C)C(=O)N[C@H](C(=O)N1CC[C@H](O)[C@H]1Cc1c[nH]c2cc(F)ccc12)[C@@H](C)OC (relative stereo) [RR] | < 100 nM

Incoming: Give the reported Kd for CCN[C@@H](C)C(=O)N[C@H](C(=O)N1CC[C@H](OC)[C@H]1Cc1c[nH]c2ncccc12)C(C)C [II] (system: XIAP BIR-3 (Homo sapiens, UniProt P98170)).
Outgoing: 1000 to 10000 nM

----------
target-entity: XIAP BIR-3 (Homo sapiens, UniProt P98170)
Construct: 40 nM of the BIR3 for 15 min at RT
measurement-notes: Fluorescence polarization binding to XIAP BIR-3 (competition with AbuRPF-K(5-Fam)-NH2)
experimental-conditions: XIAP BIR-3 (default where cell does not indicate otherwise); reported as range class
// reported Kd for each item listed

As a guide, the following entries are already answered.
chemical-string | Kd
CN[C@@H](C)C(=O)N[C@H](C(=O)N1CC[C@@H](O)[C@H]1Cc1c[nH]c2ccccc12)[C@@H](C)O | < 100 nM
CCN[C@@H](C)C(=O)N[C@H](C(=O)N1CC[C@H](C)[C@H]1Cc1c[nH]c2cc(F)ccc12)[C@@H](C)O | > 10000 nM
CC[C@H](NC)C(=O)N[C@H](C(=O)N1C[C@@H](O)C[C@H]1Cc1c[nH]c2ncccc12)C1CCCCC1 | < 100 nM
CN[C@@H](C)C(=O)N[C@H](C(=O)N1CC[C@H](OC)[C@H]1Cc1c(Cl)[nH]c2cc(F)ccc12)[C@@H](C)O | > 100 nM
CN[C@@H](C)C(=O)N[C@H](C(=O)N1CCC[C@H]1Cc1c[nH]c2ncccc12)[C@@H](C)OC | < 100 nM
CC[C@H](NC)C(=O)N[C@H](C(=O)N1CC[C@H](OC)[C@H]1Cc1c(Cl)[nH]c2cc(F)ccc12)[C@@H](C)O | > 100 nM
CN[C@@H](CO)C(=O)N[C@H](C(=O)N1CC[C@H](OC)[C@H]1Cc1c(Cl)[nH]c2cc(F)ccc12)[C@@H](C)OC | 1000 to 10000 nM
CCN[C@@H](C)C(=O)N[C@H](C(=O)N1CC[C@H](C)[C@H]1Cc1c[nH]c2cc(F)ccc12)[C@@H](C)OC | 1000 to 10000 nM
CN[C@@H](C)C(=O)N[C@H](C(=O)N1CCC[C@H]1Cc1c[nH]c2ncccc12)C(C)(C)C | < 100 nM
CN[C@@H](C)C(=O)N[C@H](C(=O)N1CCC[C@H]1Cc1cn(C)c2ncccc12)[C@@H](C)OC | < 100 nM

Incoming: Item under review: CN[C@@H](C)C(=O)N[C@H](C(=O)N1CC[C@@H](O)[C@H]1Cc1c[nH]c2ccccc12)C1CCCCC1 . Reported Kd?
Outgoing: < 100 nM

Incoming: I'd like to know its Kd. The compound in question is CCN[C@@H](C)C(=O)N[C@H](C(=O)N1CC[C@H](O)[C@H]1Cc1cn(C)c2cc(F)ccc12)[C@@H](C)OC
Outgoing: < 100 nM

Incoming: What measured Kd goes with CCN[C@@H](CC)C(=O)N[C@H](C(=O)N1CCC[C@H]1Cc1c[nH]c2c1ccc[n+]2[O-])[C@@H](C)OC ?
Outgoing: > 100 nM

Incoming: Consider the compound shown here: CN[C@@H](C)C(=O)N[C@H](C(=O)N1CCC[C@H]1Cc1c[nH]c2c1ccc[n+]2[O-])[C@@H](C)OC What is its recorded Kd?
Outgoing: < 100 nM

Incoming: # query: Kd of entry CN[C@@H](CO)C(=O)N[C@H](C(=O)N1CC[C@H](C)[C@H]1Cc1c[nH]c2cc(F)ccc12)[C@@H](C)O
Outgoing: > 10000 nM

Incoming: Tell me the measured Kd of CC[C@H](NC)C(=O)N[C@H](C(=O)N1CC[C@@H](O)[C@H]1Cc1c[nH]c2ccccc12)[C@@H](C)OC , please.
Outgoing: < 100 nM

Incoming: Kd lookup needed for CN[C@@H](C)C(=O)N[C@H](C(=O)N1CC[C@H](O)[C@H]1Cc1c[nH]c2cc(F)ccc12)C(C)(C)C , thanks.
Outgoing: < 100 nM

Values were extracted from patent US20110288116A1.
